Hello, the source for this data is patent US8232278B2, in case you need it.

Test system: HCV replicon
assay-explanation: Anti-HCV assay / replicon assay (EC50, luciferase read-out)
Assay type: cell-based, hepatitis C virus (HCV)
experimental-context: CC50/EC50 ratio (selectivity index)
So I've got a bunch of molecules here, and I need their CC50/EC50 values.

Find the recorded CC50/EC50 belonging to CCOc1cccc(-c2ccc3nc(N)nc(OCC)c3n2)c1 and report it. 53

Find the recorded CC50/EC50 belonging to CCOc1nc(N)nc2ccc(-c3ccc(OC)nc3)nc12 and report it. 68

Find the recorded CC50/EC50 belonging to Nc1nc(N2CCN(C(=O)COc3ccc(Cl)cc3)CC2)c2nc(-c3ccc(F)cc3)ccc2n1 and report it. 558

Find the recorded CC50/EC50 belonging to CCOc1ccc(-c2ccc3ncnc(N4CCN(C(=O)Nc5cccc(Cl)c5)CC4)c3n2)cc1Cl and report it. 100

Find the recorded CC50/EC50 belonging to CS(=O)(=O)CCNc1nc(N)nc2ccc(-c3ccc(F)cc3)nc12 and report it. 118

Find the recorded CC50/EC50 belonging to COCCSc1nc(N)nc2ccc(-c3ccc(F)cc3)nc12 and report it. 278

Find the recorded CC50/EC50 belonging to COc1ccc(-c2ccc3nc(N)nc(Nc4ccc5c(c4)OCO5)c3n2)cc1OC and report it. 636

Find the recorded CC50/EC50 belonging to CC(=O)N1CCN(c2nc(N)nc3ccc(-c4ccc(F)cc4)nc23)CC1 and report it. 87

Find the recorded CC50/EC50 belonging to Cc1cccc(OCC(=O)N2CCN(c3nc(N)nc4ccc(-c5ccc(F)cc5)nc34)CC2)c1 and report it. 65

Find the recorded CC50/EC50 belonging to Cc1cccc(NC(=O)N2CCN(c3nc(N)nc4ccc(-c5ccc6c(c5)OCCO6)nc34)CC2)c1 and report it. 147

Find the recorded CC50/EC50 belonging to COc1ccc(-c2ccc3nc(N)nc(NC4CCCN(C(=O)OC(C)(C)C)C4)c3n2)cc1OC (centres unmarked) and report it. 238

Find the recorded CC50/EC50 belonging to Nc1ccc(-c2ccc3nc(N)nc(N4CCOCC4)c3n2)cc1 and report it. 82

Find the recorded CC50/EC50 belonging to Nc1nc(OCc2ccccc2)c2nc(-c3cccc(F)c3)ccc2n1 and report it. 85

Find the recorded CC50/EC50 belonging to COc1ccc(-c2ccc3nc(N)nc(NC4CCCN(C(=O)Nc5cccc(C)c5)C4)c3n2)cc1OC (centres unmarked) and report it. 147

Find the recorded CC50/EC50 belonging to Nc1nc(N2CCN(C(=O)COc3ccc(Cl)cc3)CC2)c2nc(-c3ccoc3)ccc2n1 and report it. 149

Find the recorded CC50/EC50 belonging to COc1ccc(-c2ccc3nc(N)nc(NCCN4CCOCC4)c3n2)cc1OC and report it. 151

Find the recorded CC50/EC50 belonging to COCCOc1nc(N)nc2ccc(-c3ccc(OC)c(OC)c3)nc12 and report it. 66

Find the recorded CC50/EC50 belonging to Nc1nc(N2CCOCC2)c2nc(-c3ccc4c(c3)OCO4)ccc2n1 and report it. 167

Find the recorded CC50/EC50 belonging to CC(C)Oc1nc(N)nc2ccc(-c3ccc(F)cc3)nc12 and report it. 1113

Find the recorded CC50/EC50 belonging to O=C(Nc1cccc(Cl)c1)N1CCN(c2ncnc3ccc(-c4ccc5c(c4)OCO5)nc23)CC1 and report it. 64

Find the recorded CC50/EC50 belonging to CCOc1nc(N)nc2ccc(-c3ccc(F)c(Cl)c3)nc12 and report it. 117

Find the recorded CC50/EC50 belonging to CCCOc1nc(N)nc2ccc(-c3ccccc3F)nc12 and report it. 89

Find the recorded CC50/EC50 belonging to COc1ccc(-c2ccc3nc(N)nc(N4CCN(C(=O)COc5ccccc5)CC4)c3n2)cc1OC and report it. 90

Find the recorded CC50/EC50 belonging to COc1ccc(-c2ccc3nc(N)nc(N4CCN(CC(=O)N5CCOCC5)CC4)c3n2)cc1OC and report it. 84

Find the recorded CC50/EC50 belonging to CCCOc1nc(N)nc2ccc(-c3ccc(F)cc3)nc12 and report it. 221

Find the recorded CC50/EC50 belonging to COc1ccc(-c2ccc3nc(N)nc(N4CCN(Cc5ccc6c(c5)OCO6)CC4)c3n2)cc1OC and report it. 74

Find the recorded CC50/EC50 belonging to Cc1cccc(NC(=O)N2CCN(c3nc(N)nc4ccc(-c5ccc(Cl)c(Cl)c5)nc34)CC2)c1 and report it. 132

Find the recorded CC50/EC50 belonging to COc1ccc(-c2ccc3nc(N)nc(N4CCN(Cc5ccccc5)CC4)c3n2)cc1OC and report it. 546

Find the recorded CC50/EC50 belonging to CCNc1nc(N)nc2ccc(-c3ccc(F)cc3)nc12 and report it. 80

Find the recorded CC50/EC50 belonging to Nc1nc(OCC(F)(F)F)c2nc(-c3ccc(F)cc3)ccc2n1 and report it. 132

Find the recorded CC50/EC50 belonging to COc1cc(-c2ccc3nc(N)nc(N4CCN(C(=O)Nc5ccc(F)cc5)CC4)c3n2)ccc1OC(C)C and report it. 102

Find the recorded CC50/EC50 belonging to COc1ccc(-c2ccc3nc(N)nc(Nc4cccc(Br)c4)c3n2)cc1OC and report it. 151

Find the recorded CC50/EC50 belonging to Cc1cccc(NC(=O)N2CCN(c3nc(N)nc4ccc(-c5ccc6c(c5)OCO6)nc34)CC2)c1 and report it. 51

Find the recorded CC50/EC50 belonging to Nc1nc(N2CCN(C(=O)COc3ccc(F)cc3)CC2)c2nc(-c3ccc(F)cc3)ccc2n1 and report it. 148

Find the recorded CC50/EC50 belonging to COc1ccc(-c2ccc3nc(N)nc(N4CCN(c5ccccn5)CC4)c3n2)cc1OC and report it. 72

###

System: HCV replicon
assay-explanation: Anti-HCV assay / replicon assay (EC50, luciferase read-out)
Type: cell-based, hepatitis C virus (HCV)
experimental-context: CC50/EC50 ratio (selectivity index)
CC50/EC50 strictly less than 700 = yes. Otherwise no.

Does Nc1nc(N2CCN(C(=O)COc3ccc(Cl)cc3)CC2)c2nc(-c3ccc(F)c(Cl)c3)ccc2n1 have CC50/EC50 strictly under 700? yes

Does CC(=O)Nc1ccc(-c2ccc3nc(N)nc(N4CCOCC4)c3n2)cc1 have CC50/EC50 strictly under 700? no

Does COCCNc1nc(NC(C)=O)nc2ccc(-c3ccc(F)cc3)nc12 have CC50/EC50 strictly under 700? yes

Does Nc1nc(OCc2ccccc2)c2nc(-c3ccc(F)cc3)ccc2n1 have CC50/EC50 strictly under 700? yes

Does Nc1nc(N2CCN(C(=O)COc3ccc(Cl)cc3Cl)CC2)c2nc(-c3ccc(F)cc3)ccc2n1 have CC50/EC50 strictly under 700? yes

Does CCOc1nc(N)nc2ccc(-c3ccc(F)cc3)nc12 have CC50/EC50 strictly under 700? no

###

assay-explanation: CC50 assay in Huh-7 HCV replicon cells (CellTiter-Glo)
Type: cell-based, human
experimental-context: human, 50% cytostatic concentration
test-readout: CC50 at 3 days (µM)
Expressed in µM, but write only the number.

Find the recorded CC50 at 3 days belonging to Nc1nc(OCc2ccccc2)c2nc(-c3ccc(F)cc3)ccc2n1 and report it. 37.5

Find the recorded CC50 at 3 days belonging to COc1ccc(-c2ccc3nc(N)nc(N4CCN(CC(=O)NCCc5ccccc5)CC4)c3n2)cc1OC and report it. 2.6

Find the recorded CC50 at 3 days belonging to CCOCCOc1nc(N)nc2ccc(-c3ccc(F)cc3)nc12 and report it. 37.5

Find the recorded CC50 at 3 days belonging to COc1nc(N)nc2ccc(-c3ccc(F)cc3)nc12 and report it. 14.3

Find the recorded CC50 at 3 days belonging to COCCSc1nc(N)nc2ccc(-c3ccc(F)cc3)nc12 and report it. 13.6

Find the recorded CC50 at 3 days belonging to Nc1nc(OCc2ccccc2)c2nc(-c3cccc(F)c3)ccc2n1 and report it. 18.8

Find the recorded CC50 at 3 days belonging to CCCOc1nc(N)nc2ccc(-c3ccc(F)cc3)nc12 and report it. 21

Find the recorded CC50 at 3 days belonging to COCCNc1nc(NC(C)=O)nc2ccc(-c3ccc(F)cc3)nc12 and report it. 25.1

Find the recorded CC50 at 3 days belonging to CCCCOc1nc(N)nc2ccc(-c3ccc(F)cc3)nc12 and report it. 21.3

Find the recorded CC50 at 3 days belonging to CCOc1nc(N)nc2ccc(-c3cccc(F)c3)nc12 and report it. 37.5

Find the recorded CC50 at 3 days belonging to CC(=O)Nc1ccc(-c2ccc3nc(N)nc(OCC4CC4)c3n2)cc1 and report it. 25.1

Find the recorded CC50 at 3 days belonging to Nc1nc(N2CCN(C(=O)COc3cccc(Cl)c3)CC2)c2nc(-c3ccc(F)cc3)ccc2n1 and report it. 25.1

###

assayed-target: HCV replicon
assay-explanation: Anti-HCV assay / replicon assay (EC50, luciferase read-out)
Assay type: cell-based, hepatitis C virus (HCV)
experimental-context: human hepatoma Huh-7 cell line harbouring a HCV replicon, 3 days, luciferase luminescence; read-out: EC50
Grouping by measured EC50 is done with the following cut points: LOW (below 40 nM), MID (40 nM to below 60 nM), HIGH (60 nM or more)

Record Nc1nc(N2CCN(C(=O)COc3ccc(Cl)cc3)CC2)c2nc(-c3ccc(Cl)c(Cl)c3)ccc2n1 [Example 188] — which class? MID

Record CCSc1nc(N)nc2ccc(-c3ccc(F)cc3)nc12 [Example 393] — which class? HIGH

Record Nc1nc(N2CCN(C(=O)COc3ccc(Cl)cc3)CC2)c2nc(-c3ccsc3)ccc2n1 [Example 382] — which class? LOW

Record Nc1nc(N2CCOCC2)c2nc(-c3ccc4c(c3)OCO4)ccc2n1 [Example 180] — which class? HIGH

Record Nc1nc(N2CCN(C(=O)COc3ccc(Cl)cc3)CC2)c2nc(-c3ccc(C(F)(F)F)cc3)ccc2n1 [Example 379] — which class? HIGH

Record Cc1cccc(NC(=O)N2CCN(c3nc(N)nc4ccc(-c5ccccc5)nc34)CC2)c1 [Example 389] — which class? LOW

Record COc1ccc(-c2ccc3nc(N)nc(N4CCN(Cc5ccccc5)CC4)c3n2)cc1OC [Example 57] — which class? MID

Record Nc1nc(N2CCN(C(=O)COc3ccc(Cl)cc3)CC2)c2nc(-c3ccc(F)cc3)ccc2n1 [Example 201] — which class? MID

Record N#Cc1ccc(-c2ccc3nc(N)nc(N4CCN(C(=O)COc5ccc(Cl)cc5)CC4)c3n2)cc1 [Example 378] — which class? LOW
